Biological target: HLA-B*18:01
Experiment: IEDB peptide-MHC binding, purified MHC/direct/fluorescence; filed as Kd, often an IC50 or EC50 that approximates it; bounds were set here for any values at or beyond the usual limits of such assays
Conditions: source organism: Salmonella enterica
Property: pKd
// returns pKd (minus log10 of molar concentration), number only

Per the reported HLA-B*18:01 data, NERWFREVI has pKd of 8.28

====

Target: HLA-A*23:01
Test: IEDB peptide-MHC binding, purified MHC/competitive/fluorescence; filed as Kd, often an IC50 or EC50 that approximates it; bounds were set here for any values at or beyond the usual limits of such assays
Conditions: source organism: Cryptosporidium parvum Iowa II
pKd: −log10 of the molar value.
Property: pKd

Per the reported HLA-A*23:01 data, LTAPCDIYV has pKd of ≤ 4.70
